SYSTEM_NAME: Human Vanilloid Receptor 1 (Homo sapiens, UniProt Q8NER1)
Construct: expressed in transfected cells; host or cells: HEK 293
Sequence (Q8NER1 whole entry): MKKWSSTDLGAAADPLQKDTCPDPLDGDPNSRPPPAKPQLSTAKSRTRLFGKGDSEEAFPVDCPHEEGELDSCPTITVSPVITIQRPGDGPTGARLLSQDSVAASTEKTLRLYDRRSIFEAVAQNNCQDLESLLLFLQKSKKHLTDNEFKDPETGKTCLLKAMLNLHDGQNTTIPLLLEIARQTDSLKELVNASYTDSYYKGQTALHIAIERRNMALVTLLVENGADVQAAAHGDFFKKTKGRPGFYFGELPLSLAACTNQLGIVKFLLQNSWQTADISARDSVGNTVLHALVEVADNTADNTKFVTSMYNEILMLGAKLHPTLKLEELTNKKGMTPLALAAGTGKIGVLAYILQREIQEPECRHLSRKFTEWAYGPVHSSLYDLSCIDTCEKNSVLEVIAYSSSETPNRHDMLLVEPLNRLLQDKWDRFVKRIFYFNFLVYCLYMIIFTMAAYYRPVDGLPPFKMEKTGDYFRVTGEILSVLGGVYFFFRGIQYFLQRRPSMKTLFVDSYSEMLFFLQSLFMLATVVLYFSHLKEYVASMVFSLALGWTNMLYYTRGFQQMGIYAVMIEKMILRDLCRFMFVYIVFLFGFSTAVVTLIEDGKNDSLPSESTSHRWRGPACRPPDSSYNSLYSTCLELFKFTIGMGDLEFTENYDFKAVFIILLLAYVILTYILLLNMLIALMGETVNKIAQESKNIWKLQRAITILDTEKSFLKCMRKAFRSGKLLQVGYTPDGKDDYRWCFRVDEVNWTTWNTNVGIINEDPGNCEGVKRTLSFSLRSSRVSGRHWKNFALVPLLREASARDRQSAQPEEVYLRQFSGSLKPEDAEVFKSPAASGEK
PROCEDURE_SUMMARY: Human VR1 functional assay using FLIPR, Protocol 1
Format: cell-based
STUDY_CONDITIONS: decreased capsaicin (EC80)-induced calcium response, HEK 293 hVR1, read-out: h IC50
pIC50: −log10 of the molar value.
Decision: pIC50 >= 6 yields 1, all other cases yield 0.

Answered cases to consult:
O=C1COc2ccc(NC(=O)C3CCN(c4cccc(Cl)c4)CC3)cc2N1
1
Cc1cccc(N2CCC(C(=O)Nc3ccc4c(c3)NC(=O)CO4)CC2)c1
1
O=C(Nc1ccc2ncsc2c1)C1CCN(c2cccc(C(F)(F)F)c2)CC1
1

Hello, I need to know if "Cc1cccc(N2CCC(C(=O)Nc3ccc4c(c3)NC(=O)CO4)CC2)c1C" has measured pIC50 not below 6. Thanks!
1

// query: "O=C1COc2ccc(NC(=O)C3CCN(c4ccccc4C(F)(F)F)CC3)cc2N1"
1

// query: "Cc1cccc(N2CCC(C(=O)Nc3cnc4ccccc4c3)CC2)c1C"
1
